- Study System: SOCS2 FL + F3 (human), O14508
- Sequence (O14508 whole entry, chain 1 of 3): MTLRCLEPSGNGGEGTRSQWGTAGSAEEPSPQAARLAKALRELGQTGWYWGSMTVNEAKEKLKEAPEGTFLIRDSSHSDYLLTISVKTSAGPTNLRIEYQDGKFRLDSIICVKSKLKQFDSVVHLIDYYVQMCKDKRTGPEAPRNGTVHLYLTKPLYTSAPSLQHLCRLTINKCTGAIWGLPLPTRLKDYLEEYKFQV
- Sequence (Q15370 whole entry, chain 2 of 3, further chain): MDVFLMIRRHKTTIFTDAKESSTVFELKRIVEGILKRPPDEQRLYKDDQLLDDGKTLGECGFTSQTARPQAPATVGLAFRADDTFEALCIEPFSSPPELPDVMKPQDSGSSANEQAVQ
- Sequence (Q15369 17-112, chain 3 of 3, further chain): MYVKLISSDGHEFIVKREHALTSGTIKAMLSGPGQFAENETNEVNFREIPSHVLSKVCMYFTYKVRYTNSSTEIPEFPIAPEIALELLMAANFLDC
- Assay Method Text: SPR
- Assay Conditions: remark: other sources report otherwise
Property Measured: IC50

>  <Binder>
PVPDYTSIHIV (here or on the partner: phosphotyrosine at 595) [GHR pY595 peptide]

>  <Result>
200 nM

$$$$

Source listed as paper PMC8640019.
